study target: T1, hCMV glycoprotein B (gB; HEK293T transfectant) (hCMV, UniProt P06473 32-906)
T1 construct: whole, on cells; in the functional rows it stands for gB on virions or transduced cells of the strain or isolate named in the readout
T1 sequence (P06473 32-906 limits assumed): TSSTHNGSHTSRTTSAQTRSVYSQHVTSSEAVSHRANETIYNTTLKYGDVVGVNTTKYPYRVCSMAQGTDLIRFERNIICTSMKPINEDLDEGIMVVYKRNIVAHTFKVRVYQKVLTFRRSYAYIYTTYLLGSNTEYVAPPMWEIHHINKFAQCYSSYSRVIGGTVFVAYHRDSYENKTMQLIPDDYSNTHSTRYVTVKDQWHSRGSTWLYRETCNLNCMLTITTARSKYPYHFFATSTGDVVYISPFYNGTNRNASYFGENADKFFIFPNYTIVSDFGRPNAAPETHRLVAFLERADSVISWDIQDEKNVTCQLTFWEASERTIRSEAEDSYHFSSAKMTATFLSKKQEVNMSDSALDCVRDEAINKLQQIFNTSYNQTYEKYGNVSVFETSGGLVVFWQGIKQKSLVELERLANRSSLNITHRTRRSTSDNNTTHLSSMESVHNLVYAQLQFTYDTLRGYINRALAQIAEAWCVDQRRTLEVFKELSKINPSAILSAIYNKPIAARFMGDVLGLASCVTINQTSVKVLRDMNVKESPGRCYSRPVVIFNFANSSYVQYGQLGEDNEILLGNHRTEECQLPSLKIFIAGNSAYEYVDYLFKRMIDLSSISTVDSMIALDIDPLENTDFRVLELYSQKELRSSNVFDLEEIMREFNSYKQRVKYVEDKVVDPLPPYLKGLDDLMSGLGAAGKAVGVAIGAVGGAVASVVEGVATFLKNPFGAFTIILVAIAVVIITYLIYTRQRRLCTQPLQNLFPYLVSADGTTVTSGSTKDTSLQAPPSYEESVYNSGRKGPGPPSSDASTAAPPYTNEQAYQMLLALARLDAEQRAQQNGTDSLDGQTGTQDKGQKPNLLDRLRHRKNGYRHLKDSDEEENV
assay details: cell competition; competitor 6B4-biotin
Catalogue of Inhibition of binding (%) readings, one per entry.
Numeric answer only, unit % assumed.

Recorded results for 2 binders are shown here.
binder: 10C6 (antibody, V domains shown, human IgG; also called 10C6-biotin; 1006) VH: AVQLVESGGGLAQPGRSLRLSCKVSGFSFSNFEMNWVRQAPGKGLEWIAYIDFTGSTIYYSDSVKGRFTISRDTARNSLYLQMNKLRVEDTAVYYCVRDAGRWGTSWYYFDYWGQGTLVTVSS VL: QSVLTQPPSVSGAPGQRVTISCTGLSSNIGAGYDIHWYQQIPGKAPKLLIYGNNNRPSGVPDRFSGSKSGTSVSLAITGLQAEDEADYYCQSYDSSLNGWVFGGGTRLTVL
Inhibition of binding (%): 0

binder: 2B11 (antibody, V domains shown, human IgG; also called 2B11-biotin) VH: AVRLVESGGGLAQPGRSLRLSCQVSGFTFGSYEMNWVRQAPGKGLEWIAYIDFTGSTIYYADSVKGRFTISRNTARNSLYLQMNSLRVEDTAVYYCVRDAGRWGTSWYYFDYWGQGTRVTVSP VL: QSVLTQPPSVSGAPGQRVTISCTGISSNIGAGYDIHWYQQIPGKAPKLLVYGNNNRPSGVPDRFSGSKSGTSVSLAITGLQVEDEADYYCQSYDNSLNGWVFGGGTRLTVL
Inhibition of binding (%): 0

Now for the binder whose Inhibition of binding (%) we want.
Output Inhibition of binding (%) of 7H3 (antibody, V domains shown, fully human IgG1 with unaltered Fc; also called 7H3-biotin; LJP538) VH: QVQLVQSGAEVKNPGASVKVSCKASGYTFTDYYIHWVRQAPGQGLEWMGWFNPNSGGTNFVQNFQGRVTMTRDTSISTAYMELSRLRSDDTAMYYCAKDSAKTASAYYGLNFFYYGMDVWGQGTTVTVSS VL: QSVLSQPPSASGTPGQRVTISCSGSSSNIGKNYVYWYQQVPGTAPKLLMFKNNQRPSGVPDRFSGSKSGTSASLAISGLRSEDEADYYCSAWDGSLSRPLFGGGTKVTVL 0

Taken from patent US20170296650A1.
